Reported residual activity values for the following molecules.
- system under test: PRKCB2 (human) (UniProt P05771)
- Sequence (P05771 whole entry, looked up): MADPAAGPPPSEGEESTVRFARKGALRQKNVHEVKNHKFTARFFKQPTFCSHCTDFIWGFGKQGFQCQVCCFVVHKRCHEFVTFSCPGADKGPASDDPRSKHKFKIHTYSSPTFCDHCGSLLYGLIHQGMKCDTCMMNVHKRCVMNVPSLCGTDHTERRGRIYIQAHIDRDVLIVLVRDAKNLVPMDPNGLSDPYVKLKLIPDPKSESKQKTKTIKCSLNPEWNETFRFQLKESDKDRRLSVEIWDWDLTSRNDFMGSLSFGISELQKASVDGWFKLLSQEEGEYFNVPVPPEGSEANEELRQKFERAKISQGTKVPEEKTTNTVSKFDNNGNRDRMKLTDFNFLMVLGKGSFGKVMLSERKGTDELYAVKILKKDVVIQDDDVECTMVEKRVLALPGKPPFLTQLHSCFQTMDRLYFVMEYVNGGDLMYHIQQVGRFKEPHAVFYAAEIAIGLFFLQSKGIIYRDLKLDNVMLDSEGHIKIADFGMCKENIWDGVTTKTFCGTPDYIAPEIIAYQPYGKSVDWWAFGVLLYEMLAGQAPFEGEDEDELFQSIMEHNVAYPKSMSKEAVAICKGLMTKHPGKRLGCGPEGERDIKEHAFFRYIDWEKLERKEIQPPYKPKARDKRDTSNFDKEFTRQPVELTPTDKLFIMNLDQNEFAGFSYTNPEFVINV
- test: radiometric filter-binding kinase assay, Kinase HotSpot
- experimental context: compound 0.5 µM; ATP 10 µM
Write down the numeric answer in % and omit the unit.

Consider the worked cases shown below.
[[record]]
smiles_structure = "O=C1NC(=O)c2cc(Nc3ccc(F)cc3)c(Nc3ccc(F)cc3)cc21"
system_under_test = "PRKCB2 (human) (UniProt P05771)"
numeric_result = 15.5

[[record]]
smiles_structure = "COc1cc2c(N3CCN(C(=O)Nc4ccc(OC(C)C)cc4)CC3)ncnc2cc1OCCCN1CCCCC1"
system_under_test = "PRKCB2 (human) (UniProt P05771)"
numeric_result = 93.1


Here is another molecule to look at.
The recorded residual activity for Nc1ncnc2c1cnn2-c1ccccc1 is 96.5

====

Reported residual activity values for the following compounds.
- system under test: ABL2 (human)
- test: radiometric filter-binding kinase assay, Kinase HotSpot
- experimental context: compound 0.5 µM; ATP 10 µM
Write down the numeric answer in % and omit the unit.

[[record]]
smiles_structure = "Nc1ncnc2c1cnn2-c1ccccc1"
numeric_result = 93

[[record]]
smiles_structure = "O=c1cc(N2CCOCC2)oc2c(-c3ccccc3)cccc12"
numeric_result = 98.1

[[record]]
smiles_structure = "O=c1c2ccccc2[nH]c(=S)n1CCN1CCC(=C(c2ccc(F)cc2)c2ccc(F)cc2)CC1"
numeric_result = 103

[[record]]
smiles_structure = "N/C(=N\\N=C/c1ccc(-c2cccc([N+](=O)[O-])c2)o1)N[N+](=O)[O-]"
numeric_result = 95.7


The recorded residual activity for CCCCc1c(-c2ccc(O)cc2)[nH]c2nccnc12 is 64.9

The recorded residual activity for O=C1NC(=O)c2cc(Nc3ccc(F)cc3)c(Nc3ccc(F)cc3)cc21 is 89.6

The recorded residual activity for N#C/C(=C1/Nc2ccccc2S1)c1ccnc(NCCc2cccnc2)n1 is 98.8

The recorded residual activity for Cc1cc(Nc2nc(-c3ccccc3)nc3ccccc23)n[nH]1 is 42.5

The recorded residual activity for c1ccc(-c2cnc(Nc3ccc(OCCN4CCCC4)cc3)s2)cc1 is 37.2

The recorded residual activity for COc1cc2c(Nc3ccc(Br)cc3F)ncnc2cc1OCC1CCN(C)CC1 is 14

The recorded residual activity for O=C1NC(=O)c2c1c1c3ccccc3[nH]c1c1[nH]c3cc(Br)ccc3c21 is 93.8

The recorded residual activity for Cn1cc(/C=C2\C(=O)Nc3ccc(S(N)(=O)=O)cc32)c2ccccc21 is 54.2

====

- system under test: BTK (human)
- test: radiometric filter-binding kinase assay, Kinase HotSpot
- experimental context: compound 0.5 µM; ATP 10 µM
Assign 1 to entries whose residual activity meets or exceeds 60%; assign 0 to the rest.

Study these solved cases before continuing.
[[record]]
smiles_structure = "O=c1c(-c2ccc(F)cc2)c(-c2ccncc2)[nH]n1-c1ccc(Cl)cc1"
system_under_test = "BTK (human)"
assigned_label = 1

[[record]]
smiles_structure = "Nc1ncnc2c1cnn2-c1ccccc1"
system_under_test = "BTK (human)"
assigned_label = 1

[[record]]
smiles_structure = "CCc1nc(-c2ccc(OC)cc2)[nH]c1-c1ccncc1"
system_under_test = "BTK (human)"
assigned_label = 1

[[record]]
smiles_structure = "COc1cc2ncnc(Nc3ccc(O)c(Br)c3)c2cc1OC"
system_under_test = "BTK (human)"
assigned_label = 1

[[record]]
smiles_structure = "COc1cc2c(cc1OC)-c1[nH]nc(Nc3cccc(F)c3)c1C2"
system_under_test = "BTK (human)"
assigned_label = 0

[[record]]
smiles_structure = "N/C(=N\\N=C/c1ccc(-c2cccc([N+](=O)[O-])c2)o1)N[N+](=O)[O-]"
system_under_test = "BTK (human)"
assigned_label = 1

[[record]]
smiles_structure = "Cn1cc(/C=C2\\C(=O)Nc3ccc(S(N)(=O)=O)cc32)c2ccccc21"
system_under_test = "BTK (human)"
assigned_label = 0

[[record]]
smiles_structure = "O=C1NC(=O)c2cc(Nc3ccc(F)cc3)c(Nc3ccc(F)cc3)cc21"
system_under_test = "BTK (human)"
assigned_label = 1

[[record]]
smiles_structure = "N#CCCc1ccc2c(c1)-c1[nH]c3ccc([N+](=O)[O-])cc3c1CC(=O)N2"
system_under_test = "BTK (human)"
assigned_label = 1


Please examine the following record next.
Incoming: Would you say Cc1cc(Nc2nc(-c3ccccc3)nc3ccccc23)n[nH]1 shows residual activity at minimum 60%?
Outgoing: 0

====

- system under test: EPHB3 (human)
- test: radiometric filter-binding kinase assay, Kinase HotSpot
- experimental context: compound 0.5 µM; ATP 10 µM
Assign y to entries whose residual activity meets or exceeds 90%; assign n to the rest.

Study these solved cases before continuing.
[[record]]
smiles_structure = "N#CCCc1ccc2c(c1)-c1[nH]c3ccc([N+](=O)[O-])cc3c1CC(=O)N2"
assigned_label = "y"

[[record]]
smiles_structure = "COc1cc2c(N3CCN(C(=O)Nc4ccc(OC(C)C)cc4)CC3)ncnc2cc1OCCCN1CCCCC1"
assigned_label = "n"


Incoming: Would you say Cc1cc(Nc2nc(-c3ccccc3)nc3ccccc23)n[nH]1 shows residual activity at minimum 90%?
Outgoing: n

Incoming: Would you say O=c1cc(N2CCOCC2)oc2c(-c3ccccc3)cccc12 shows residual activity at minimum 90%?
Outgoing: y

Incoming: Would you say COc1cc2c(cc1OC)-c1[nH]nc(Nc3cccc(F)c3)c1C2 shows residual activity at minimum 90%?
Outgoing: y

Incoming: Would you say O=C1NC(=O)c2cc(Nc3ccc(F)cc3)c(Nc3ccc(F)cc3)cc21 shows residual activity at minimum 90%?
Outgoing: y

Incoming: Would you say c1ccc(-c2cnc(Nc3ccc(OCCN4CCCC4)cc3)s2)cc1 shows residual activity at minimum 90%?
Outgoing: y

====

- system under test: MET (human)
- test: radiometric filter-binding kinase assay, Kinase HotSpot
- experimental context: compound 0.5 µM; ATP 10 µM
Reported residual activity values for the following molecules.
Write down the numeric answer in % and omit the unit.

Consider the worked cases shown below.
[[record]]
smiles_structure = "N/C(=N\\N=C/c1ccc(-c2cccc([N+](=O)[O-])c2)o1)N[N+](=O)[O-]"
quantity_name = "residual activity"
numeric_result = 96.3

[[record]]
smiles_structure = "c1ccc(-c2cnc(Nc3ccc(OCCN4CCCC4)cc3)s2)cc1"
quantity_name = "residual activity"
numeric_result = 89.7

[[record]]
smiles_structure = "N#CCCc1ccc2c(c1)-c1[nH]c3ccc([N+](=O)[O-])cc3c1CC(=O)N2"
quantity_name = "residual activity"
numeric_result = 119

[[record]]
smiles_structure = "Cn1cc(/C=C2\\C(=O)Nc3ccc(S(N)(=O)=O)cc32)c2ccccc21"
quantity_name = "residual activity"
numeric_result = 84.2


The recorded residual activity for O=C1NC(=O)c2cc(Nc3ccc(F)cc3)c(Nc3ccc(F)cc3)cc21 is 96.7

The recorded residual activity for Cc1cc(Nc2nc(-c3ccccc3)nc3ccccc23)n[nH]1 is 130

The recorded residual activity for O=C1NC(=O)c2c1c1c3ccccc3[nH]c1c1[nH]c3cc(Br)ccc3c21 is 76.6

The recorded residual activity for COc1cc2c(N3CCN(C(=O)Nc4ccc(OC(C)C)cc4)CC3)ncnc2cc1OCCCN1CCCCC1 is 92.5

====

- system under test: PRKD1 (human) (UniProt Q15139)
- Sequence (Q15139 whole entry, looked up): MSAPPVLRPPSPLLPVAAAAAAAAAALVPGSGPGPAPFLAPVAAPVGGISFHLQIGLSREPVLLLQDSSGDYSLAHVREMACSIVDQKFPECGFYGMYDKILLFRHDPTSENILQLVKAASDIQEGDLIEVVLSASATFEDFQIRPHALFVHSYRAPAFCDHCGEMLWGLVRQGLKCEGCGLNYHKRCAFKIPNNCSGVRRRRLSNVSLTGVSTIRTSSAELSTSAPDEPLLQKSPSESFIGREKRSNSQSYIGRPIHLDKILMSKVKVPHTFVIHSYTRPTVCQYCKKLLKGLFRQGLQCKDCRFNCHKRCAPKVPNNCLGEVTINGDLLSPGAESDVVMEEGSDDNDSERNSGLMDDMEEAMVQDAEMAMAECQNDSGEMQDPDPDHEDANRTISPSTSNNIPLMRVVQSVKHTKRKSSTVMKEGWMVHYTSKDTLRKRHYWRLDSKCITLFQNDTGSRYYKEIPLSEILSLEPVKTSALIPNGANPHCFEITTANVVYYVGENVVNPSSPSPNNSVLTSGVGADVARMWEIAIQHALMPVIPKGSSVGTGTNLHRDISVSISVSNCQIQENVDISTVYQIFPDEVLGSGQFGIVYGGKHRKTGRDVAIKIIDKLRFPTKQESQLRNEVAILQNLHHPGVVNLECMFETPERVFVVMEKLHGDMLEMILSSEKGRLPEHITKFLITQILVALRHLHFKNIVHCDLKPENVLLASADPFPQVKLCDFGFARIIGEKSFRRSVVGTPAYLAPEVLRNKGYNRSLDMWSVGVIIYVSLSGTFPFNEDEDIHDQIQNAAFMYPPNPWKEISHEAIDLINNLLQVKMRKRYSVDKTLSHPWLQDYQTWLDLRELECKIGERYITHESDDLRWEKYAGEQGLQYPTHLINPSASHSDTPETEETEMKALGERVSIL
- test: radiometric filter-binding kinase assay, Kinase HotSpot
- experimental context: compound 0.5 µM; ATP 10 µM
Reported residual activity values for the following molecules.
Write down the numeric answer in % and omit the unit.

Consider the worked cases shown below.
[[record]]
smiles_structure = "COc1cc2c(N3CCN(C(=O)Nc4ccc(OC(C)C)cc4)CC3)ncnc2cc1OCCCN1CCCCC1"
numeric_result = 96.1

[[record]]
smiles_structure = "O=C(c1ccccc1)c1ccc(N2CCOCC2)cc1O"
numeric_result = 102

[[record]]
smiles_structure = "O=c1c2ccccc2[nH]c(=S)n1CCN1CCC(=C(c2ccc(F)cc2)c2ccc(F)cc2)CC1"
numeric_result = 101


The recorded residual activity for Cn1cc(/C=C2\C(=O)Nc3ccc(S(N)(=O)=O)cc32)c2ccccc21 is 80

The recorded residual activity for N/C(=N\N=C/c1ccc(-c2cccc([N+](=O)[O-])c2)o1)N[N+](=O)[O-] is 103

The recorded residual activity for O=S(=O)(NCCNC/C=C/c1ccc(Br)cc1)c1cccc2cnccc12 is 98.7

====

- system under test: ROCK1 (human)
- test: radiometric filter-binding kinase assay, Kinase HotSpot
- experimental context: compound 0.5 µM; ATP 10 µM
quantity name: residual activity (%)
Write down the numeric answer in % and omit the unit.

Consider the worked cases shown below.
[[record]]
smiles_structure = "CCc1nc(-c2ccc(OC)cc2)[nH]c1-c1ccncc1"
numeric_result = 105

[[record]]
smiles_structure = "O=C(O)c1ccc2c3c1cccc3c(=O)n1c3ccccc3nc21"
numeric_result = 104

[[record]]
smiles_structure = "CCOc1cc2ncnc(Nc3cccc(Br)c3)c2cc1OCC"
numeric_result = 98.8

[[record]]
smiles_structure = "O=C1NC(=O)c2cc(Nc3ccc(F)cc3)c(Nc3ccc(F)cc3)cc21"
numeric_result = 96.7


The recorded residual activity for O=C(c1ccccc1)c1ccc(N2CCOCC2)cc1O is 93.4

The recorded residual activity for COc1cccc(-c2cc(=O)c3ccccc3o2)c1N is 95.6
